- Assayed System: Polyadenylate-binding protein 1 (Homo sapiens) (UniProt P11940)
- Sequence (P11940 whole entry, looked up): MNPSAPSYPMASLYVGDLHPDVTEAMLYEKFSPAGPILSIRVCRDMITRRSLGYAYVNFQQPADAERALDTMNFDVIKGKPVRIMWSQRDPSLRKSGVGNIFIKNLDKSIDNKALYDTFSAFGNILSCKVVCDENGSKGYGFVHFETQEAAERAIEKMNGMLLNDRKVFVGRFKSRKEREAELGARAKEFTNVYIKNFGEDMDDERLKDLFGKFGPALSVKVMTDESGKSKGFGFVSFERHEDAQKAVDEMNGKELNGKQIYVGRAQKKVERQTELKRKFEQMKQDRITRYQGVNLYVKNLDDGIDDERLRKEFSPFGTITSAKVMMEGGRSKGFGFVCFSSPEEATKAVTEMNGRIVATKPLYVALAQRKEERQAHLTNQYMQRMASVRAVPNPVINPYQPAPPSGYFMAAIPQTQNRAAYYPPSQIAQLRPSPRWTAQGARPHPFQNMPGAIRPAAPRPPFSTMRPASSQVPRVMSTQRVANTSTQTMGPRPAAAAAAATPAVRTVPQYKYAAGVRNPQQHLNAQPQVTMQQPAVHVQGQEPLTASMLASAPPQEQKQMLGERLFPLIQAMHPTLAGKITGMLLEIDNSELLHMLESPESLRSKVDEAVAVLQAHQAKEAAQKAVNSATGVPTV
- Test Description: inhibitors of PABP1 MLLE–PAM2 peptide binding, primary screen, biochemical, fluorescence polarization, FITC-PAM2, GST-MLLE (AID 588489);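 also: plate controls were DMSO wells with GST-MLLE for no effect and wells lacking GST-MLLE protein for full effect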
- Setup Conditions: at 20 µM
The campaign covered roughly 360,000 compounds. About 1,300 (0.36%) were called active. Rule as the data show it: active = inhibition above about 35% (passing the limit was not always enough); inactive = the rest. This excerpt belongs to a sample that is enriched for actives.
Write down the outcome that applies. Available outcomes: y = active, n = inactive

Past entries and their recorded results:
COc1ccc(-c2cc(C3CCN(c4ncccc4[N+](=O)[O-])CC3)[nH]n2)cc1    n
O=C1CCCC(O)=C1N=Nc1ccc2ncsc2c1    y
Cc1ccc(OCC(=O)Nc2ccccc2C(=O)NC2CC2)cc1C    n

Challenge: Lab log entry: Cc1ccc(S(=O)(=O)NNC(=O)Nc2cccc3ccccc23)cc1 — outcome as called in the assay?
Response given: n

====

Record form. Attribute: inhibition. Fill in for each entry.
- Assayed System: Polyadenylate-binding protein 1 (Homo sapiens) (UniProt P11940)
- Test Description: inhibitors of PABP1 MLLE–PAM2 peptide binding, primary screen, biochemical, fluorescence polarization, FITC-PAM2, GST-MLLE (AID 588489);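 also: plate controls were DMSO wells with GST-MLLE for no effect and wells lacking GST-MLLE protein for full effect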
- Setup Conditions: at 20 µM, active compounds read high
About 1,300 (0.36%) of roughly 360,000 compounds were called active. Shown is part of a subset that was picked to be rich in actives.
Numbers only, in %.

Some compounds with known inhibition results, for comparison:
CC(=O)Nc1ccc(N2C(=O)CC(Sc3nccc(C)n3)C2=O)cc1 (configuration not stated)    20.5
C=CCc1cccc2cc(C(=O)NC3CCCC3)c(=O)oc12    6.38
Cc1nc([N+](=O)[O-])nn1C12CC3CC(CC(Br)(C3)C1)C2    39.5
Cc1ccc(C(=O)N/N=C\c2cc(Br)c(Br)o2)cn1    69.9
CN(C(=O)CN1C(=O)S/C(=C\c2ccccc2F)C1=O)C1CCS(=O)(=O)C1 (configuration not stated)    34
COc1ccc(C(C#N)Nc2ccc(C)cc2)cc1 (configuration not stated)    -0.36

API: the following record is the query input.
Challenge: Tell us which inhibition value is on record for COc1cc(/C=C/C(=O)OCC(=O)NCCCc2ccccc2)ccc1O
Response given: 7.53

====

- Assayed System: Polyadenylate-binding protein 1 (Homo sapiens) (UniProt P11940)
- Test Description: inhibitors of PABP1 MLLE–PAM2 peptide binding, primary screen, biochemical, fluorescence polarization, FITC-PAM2, GST-MLLE (AID 588489);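 also: plate controls were DMSO wells with GST-MLLE for no effect and wells lacking GST-MLLE protein for full effect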
- Setup Conditions: at 20 µM
Among all 360,000 compounds or so, about 1,300 (0.36%) were called active. No stated cut-off is given here; in the data, active means inhibition above about 35% (passing the limit was not always enough); inactive means the rest. This excerpt belongs to a sample that is enriched for actives.
Write down the outcome that applies. Available outcomes: active, inactive

Past entries and their recorded results:
Cc1cccc(OCCNC(=S)NC(=O)c2cccnc2)c1    inactive
O=C1N=C2SCCN2/C1=C\c1c(Cl)cccc1Cl    active
CCN(CC)S(=O)(=O)c1ccc(N2CCOCC2)c(NC(=O)C(C)Oc2ccc(F)cc2)c1 (stereo unspecified)    inactive
COc1ccccc1-c1cc(NC(C)=O)c2ncc(-c3ccc(F)cc3)n2c1    inactive
CCOC(=O)c1c(NC(=O)C2(C)Cc3ccccc3C(=O)O2)sc2c1CCCC2 (stereo unspecified)    active

Challenge: Lab log entry: O=C(CSc1ccccc1)Nc1cc(Cl)ccc1Oc1ccccc1 — outcome as called in the assay?
Response given: inactive

Challenge: Lab log entry: COc1cccc(NC(=O)CN(C)C(=O)Cc2ccc(Cl)cc2Cl)c1 — outcome as called in the assay?
Response given: inactive

Challenge: Lab log entry: CC1(C)C2CC=C(/C=N/NC(=O)c3ccc(Cl)cc3)C1C2 (stereo unspecified) — outcome as called in the assay?
Response given: inactive

Challenge: Lab log entry: CCc1ccc2c(c1)C1(NN=C(c3ccccc3)S1)C(=O)N2 (stereo unspecified) — outcome as called in the assay?
Response given: active

Challenge: Lab log entry: OC(c1ccc(Cl)cc1)C(CN1CCOCC1)c1ccccc1 (stereo unspecified) — outcome as called in the assay?
Response given: inactive

Challenge: Lab log entry: COc1ccc(Nc2cc(Cl)ccc2C(=O)O)cn1 — outcome as called in the assay?
Response given: active

Challenge: Lab log entry: CC(C)(C)n1nc2c(c1NC(=O)c1cc3ccccc3o1)CSC2 — outcome as called in the assay?
Response given: active

Challenge: Lab log entry: CCOC(=O)c1c(NC(=O)C(C)Sc2c[nH]c3ccccc23)sc2c1CCC2 (stereo unspecified) — outcome as called in the assay?
Response given: inactive

Challenge: Lab log entry: COc1ccc(C(c2nnnn2C2CCCC2)N2CCN(C/C=C/c3ccccc3)CC2)cc1 (stereo unspecified) — outcome as called in the assay?
Response given: inactive

Challenge: Lab log entry: CC(C)CNC(=O)C1(C)CCCN1C(=O)CSc1ccccc1 (stereo unspecified) — outcome as called in the assay?
Response given: inactive

Challenge: Lab log entry: CC(C)CCn1cnc2c1c(=O)n(CC(=O)NC(N)=O)c(=O)n2Cc1ccccc1 — outcome as called in the assay?
Response given: inactive

Challenge: Lab log entry: CC(=O)Nc1cc(-c2ccccc2F)cn2c(-c3cccc(C(F)(F)F)c3)cnc12 — outcome as called in the assay?
Response given: inactive

Challenge: Lab log entry: COc1ccc(-c2nc(CS(=O)CC(=O)NCc3ccccn3)c(C)o2)cc1 (stereo unspecified) — outcome as called in the assay?
Response given: active

Challenge: Lab log entry: CCc1c(Nc2ccccc2C)nc(N)[nH]c1=O — outcome as called in the assay?
Response given: inactive

Challenge: Lab log entry: Cc1n[nH]c(=O)c2c(NC(=O)CSc3ccccc3F)oc(C)c12 — outcome as called in the assay?
Response given: inactive

Challenge: Lab log entry: FC(F)(F)C1CCCN(c2nsc3ccccc23)C1 (stereo unspecified) — outcome as called in the assay?
Response given: inactive

Challenge: Lab log entry: NC(=S)c1ccc(C(N)=S)o1 — outcome as called in the assay?
Response given: active

Challenge: Lab log entry: O=C(c1ccc(F)cc1)n1c(=S)nc2ccccn21 — outcome as called in the assay?
Response given: active

Challenge: Lab log entry: Oc1ccc2ccccc2c1N=Nc1nccs1 — outcome as called in the assay?
Response given: active
